# Target: ATPase family AAA domain-containing protein 2 (Homo sapiens)
# Sequence (Q6PL18 whole entry, the tested form may be a part): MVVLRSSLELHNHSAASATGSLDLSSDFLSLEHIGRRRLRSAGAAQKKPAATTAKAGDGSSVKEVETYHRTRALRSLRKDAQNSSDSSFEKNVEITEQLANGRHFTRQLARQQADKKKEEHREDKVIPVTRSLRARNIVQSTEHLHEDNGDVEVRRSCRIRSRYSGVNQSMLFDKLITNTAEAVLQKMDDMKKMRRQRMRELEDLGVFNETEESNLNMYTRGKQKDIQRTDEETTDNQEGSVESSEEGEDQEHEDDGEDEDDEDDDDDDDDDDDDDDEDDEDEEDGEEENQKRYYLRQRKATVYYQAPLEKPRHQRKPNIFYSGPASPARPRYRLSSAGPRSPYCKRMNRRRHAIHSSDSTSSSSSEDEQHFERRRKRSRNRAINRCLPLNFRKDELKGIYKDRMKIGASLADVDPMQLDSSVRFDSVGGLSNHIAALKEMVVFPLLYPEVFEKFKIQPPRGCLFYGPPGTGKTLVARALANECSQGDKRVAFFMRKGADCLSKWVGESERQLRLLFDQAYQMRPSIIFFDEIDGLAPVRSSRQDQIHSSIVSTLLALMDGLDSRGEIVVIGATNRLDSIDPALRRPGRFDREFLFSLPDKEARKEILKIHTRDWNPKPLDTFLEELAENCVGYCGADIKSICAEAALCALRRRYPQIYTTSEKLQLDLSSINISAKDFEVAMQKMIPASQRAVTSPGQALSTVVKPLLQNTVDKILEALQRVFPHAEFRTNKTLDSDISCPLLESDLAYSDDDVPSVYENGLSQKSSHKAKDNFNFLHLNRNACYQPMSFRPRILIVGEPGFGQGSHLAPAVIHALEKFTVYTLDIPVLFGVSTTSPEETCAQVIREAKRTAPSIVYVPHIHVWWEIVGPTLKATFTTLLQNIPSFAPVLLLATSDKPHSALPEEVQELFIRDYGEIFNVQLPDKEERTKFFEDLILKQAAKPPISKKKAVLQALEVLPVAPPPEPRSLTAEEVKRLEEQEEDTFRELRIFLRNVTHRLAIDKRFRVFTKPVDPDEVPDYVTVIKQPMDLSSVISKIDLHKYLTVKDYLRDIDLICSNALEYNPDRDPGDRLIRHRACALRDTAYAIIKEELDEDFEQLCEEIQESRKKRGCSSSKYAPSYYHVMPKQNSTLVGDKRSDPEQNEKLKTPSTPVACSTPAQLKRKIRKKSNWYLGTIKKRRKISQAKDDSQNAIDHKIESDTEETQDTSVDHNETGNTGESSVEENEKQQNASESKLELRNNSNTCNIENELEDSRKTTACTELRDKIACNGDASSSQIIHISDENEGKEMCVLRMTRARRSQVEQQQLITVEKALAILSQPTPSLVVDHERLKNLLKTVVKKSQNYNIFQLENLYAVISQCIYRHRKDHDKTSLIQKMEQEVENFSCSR
# Assay text: Binding affinity to recombinant human ATAD2 (982 to 1108 amino acids) bromodomain […] at methyl groups of leucine, valine, isoleucine, methionine expressed in Escherichia coli BL21 (DE3) by NMR titration
Quantity: pKd
Please report pKd as the negative decimal logarithm of the molar concentration, giving only the number.

[[record]]
input_smiles = "Cc1c[nH]c(=O)[nH]c1=O"
quantity = "pKd"
numeric_result = 2.00

[[record]]
input_smiles = "Cc1cn([C@@H]2O[C@H](CO)[C@@H](O)[C@H]2O)c(=O)[nH]c1=O"
quantity = "pKd"
numeric_result = 1.68

[[record]]
input_smiles = "Cc1cn([C@H]2CC[C@@H](CO)O2)c(=O)[nH]c1=O"
quantity = "pKd"
numeric_result = 1.74

[[record]]
input_smiles = "Cc1cn([C@@H]2O[C@H](CN)[C@@H](O)[C@H]2O)c(=O)[nH]c1=O"
quantity = "pKd"
numeric_result = 1.77


Lab note: measured pKd of Cc1cn([C@H]2C[C@H](O)[C@@H](CO)O2)c(=O)[nH]c1=O was 2.00
